Target: T1, TNFR1 (Homo sapiens, UniProt P19438)
T1 chain: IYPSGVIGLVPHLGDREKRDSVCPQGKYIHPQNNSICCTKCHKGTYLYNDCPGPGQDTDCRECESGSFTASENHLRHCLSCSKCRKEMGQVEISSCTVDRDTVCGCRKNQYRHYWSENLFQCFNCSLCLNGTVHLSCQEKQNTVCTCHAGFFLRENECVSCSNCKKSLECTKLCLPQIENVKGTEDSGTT
Test: yeast display SC50
measurement.type: apparent Kd (screen) (nM)

Sample answers from the record:
# binder, obs.value
measured = [
    ("L40P (designed binder) SMEEEVEKAAKEYEKKKKEAIEKHLEKLKAKDKEAAERFPKELEEAAKEYAKDEAKTMSEEEAKRRAKKYKEKVLLSELSEEEQKEIKEAEEKLVRTILKYVEEAAK", 10.4),
    ("E4F (designed binder) SMEFEVEKAAKEYEKKKKEAIEKHLEKLKAKDKEAAERFLKELEEAAKEYAKDEAKTMSEEEAKRRAKKYKEKVLLSELSEEEQKEIKEAEEKLVRTILKYVEEAAK", 1.69),
]

I. I98D (designed binder) SMEEEVEKAAKEYEKKKKEAIEKHLEKLKAKDKEAAERFLKELEEAAKEYAKDEAKTMSEEEAKRRAKKYKEKVLLSELSEEEQKEIKEAEEKLVRTDLKYVEEAAK
II. K85H (designed binder) SMEEEVEKAAKEYEKKKKEAIEKHLEKLKAKDKEAAERFLKELEEAAKEYAKDEAKTMSEEEAKRRAKKYKEKVLLSELSEEEQHEIKEAEEKLVRTILKYVEEAAK
Q: Given I and II , report the one with the higher recorded apparent Kd (screen). Give the chosen item's label as your response.
Result: I
(I: 1.86 nM, II: 0.869 nM)
